- Tested on: OVCAR-4 ovarian
- PROTOCOL: NCI tumour cell line growth inhibition, 48 h; in the data active means GI50 below about 0.43 µM; inactive means the rest
Choose the fitting class; nothing outside 1.0 for active, 0.0 for inactive is accepted.

Sample answers from the record:
COc1ccc2c(O)c(/C=C3\N=Nc4ncccc43)oc2c1C[C@@H]1CCNC[C@H]1F ... 0.0
N#Cc1nc(C#N)c(Sc2ccccc2)c(Sc2ccccc2)c1Sc1ccccc1 ... 0.0
CCCCOc1ccc(/C=N/Nc2cc(C)nc3ccc(Br)cc23)cc1 ... 0.0
C[N+](C)(C)c1cc[c]([Sn]([c]2ccc([N+](C)(C)C)cc2)([c]2ccc([N+](C)(C)C)cc2)[c]2ccc([N+](C)(C)C)cc2)cc1 ... 0.0
COc1ccccc1[As]=[As]c1ccccc1OC (centres undefined) ... 1.0
O=C(Nc1cc(Cl)cc(Cl)c1)c1cccc(NC2=C(Cl)C(=O)N(Cc3ccccc3)C2=O)c1 ... 0.0
CCCCCCCCCCCCN=C(N)c1ccc(N2CCN(c3ccc(C(N)=NCCCCCCCCCCCC)cc3)CC2)cc1 ... 0.0
Clc1cccc(CNc2c3ccccc3nc3ccccc23)c1 ... 0.0

Input line: Field: outcome | Entry: `C/C=C/C(=O)[O-].C/C=C/C(=O)[O-].N.N.N.N.[Co+3].[O-][Cl+3]([O-])([O-])[O-]`
Output line: 0.0
